Assay: Peptide stability in simulated gastric fluid (SGF)
Type: in vitro ADME
Details: pig, 4 h, pH 1.2, pepsin, 37° C.
*1 amine or outer side, *2 acyl side, *3 side chain or, on linkers, in order; H or OH if unused. Where a SMILES comes first, the peptide text is derived from it. Bridges are numbered along the chain shown (N, C = ends). [ ]: non-standard residue; d: D form. The star is where a group is joined. 2Nal = N[C@@H](Cc1ccc2ccccc2c1)C(=O)O; AEF = NCCOc1ccc(C[C@H](N)C(=O)O)cc1; X1 = O=C(Cc1ccc(CN[*:1])cc1)[*:2]; 3Pal = N[C@@H](Cc1cccnc1)C(=O)O; αMeL = CC(C)C[C@](C)(N)C(=O)O; Pyrrolidide = C1CCN(*)C1; Dab = NCC[C@H](N)C(=O)O
Recorded remaining at 4 h, 10 µM values for a group of compounds are listed next.
Give the number; % is assumed, so skip it.

compound	valueMeasured
CNC(=O)[C@H](Cc1cccnc1)NC(=O)[C@H](CCN)NC(=O)[C@@H]1CCC(=O)NCc2ccc(cc2)CC(=O)N[C@@H](CO)C(=O)N[C@H]2CCC(=O)NCC[C@H](NC(=O)[C@H](CCC(=O)N3CCCC3)NC(=O)[C@H](Cc3c[nH]c4ccccc34)NC2=O)C(=O)N[C@@H](Cc2ccc(OCCN)cc2)C(=O)N[C@@H](Cc2ccc3ccccc3c2)C(=O)N[C@@](C)(CC(C)C)C(=O)N1 [Compound 27] ([X1]SEWE(Pyrrolidide)[Dab][AEF][2Nal][αMeL]E[Dab][3Pal]-NHMe; lactam 3-6, N-10)	96
CNC(=O)[C@H](Cc1cccnc1)NC(=O)[C@H](CCN)NC(=O)[C@@H]1CCC(=O)NCc2ccc(cc2)CC(=O)N[C@@H](CO)C(=O)N[C@H]2CCC(=O)NCC[C@H](NC(=O)[C@H](CCC(=O)N(C)C)NC(=O)[C@H](Cc3c[nH]c4ccccc34)NC2=O)C(=O)N[C@@H](Cc2ccc(OCCN)cc2)C(=O)N[C@@H](Cc2ccc3ccccc3c2)C(=O)N[C@@](C)(CC(C)C)C(=O)N1 [Compound 30] ([X1]SEWE(NMe2)[Dab][AEF][2Nal][αMeL]E[Dab][3Pal]-NHMe; lactam 3-6, N-10)	89

Could you now look at the following compound, please?
Problem: # input compound: CNC(=O)[C@H](Cc1cccnc1)NC(=O)[C@H](CO)NC(=O)[C@@H]1CCC(=O)NCc2ccc(cc2)CC(=O)N[C@@H](CO)C(=O)N[C@H]2CCC(=O)NCC[C@H](NC(=O)[C@H](CCC(N)=O)NC(=O)[C@H](Cc3c[nH]c4ccccc34)NC2=O)C(=O)N[C@@H](Cc2ccc(OCCN)cc2)C(=O)N[C@@H](Cc2ccc3ccccc3c2)C(=O)N[C@@](C)(CC(C)C)C(=O)N1 [Compound 31] ([X1]SEWQ[Dab][AEF][2Nal][αMeL]ES[3Pal]-NHMe; lactam 3-6, N-10) ; wanted: its remaining at 4 h, 10 µM
Solution: 99
